ASSAYED_SYSTEM: folate receptor alpha (FRα) on cells (human, UniProt P15328 25-234)
Sequence (P15328 25-234): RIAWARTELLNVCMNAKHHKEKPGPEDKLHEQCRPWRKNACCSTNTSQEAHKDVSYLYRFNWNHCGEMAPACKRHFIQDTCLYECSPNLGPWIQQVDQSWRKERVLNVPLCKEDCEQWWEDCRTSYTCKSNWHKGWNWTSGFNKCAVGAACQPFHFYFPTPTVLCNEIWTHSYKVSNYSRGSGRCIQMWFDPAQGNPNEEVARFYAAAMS
PROCEDURE_TEXT: cell-based or functional assay
MEASURE: IC50, in vitro cytotoxicity (WST-8, 5 days), KB cells, +Block

Some binders with recorded IC50, in vitro cytotoxicity (WST-8, 5 days), KB cells, +Block:
{"columns": ["BINDER", "RECORDED_MEASUREMENT"],
 "data": [
  ["Mov19v1.6-GMBS-dAlalAla-PAB-DM1 (conjugate 4b) (antibody, human IgG1, kappa, V domains shown, D-Ala-L-Ala-PAB-DM1 linked through GMBS, about 3.5 DM/Ab) VH: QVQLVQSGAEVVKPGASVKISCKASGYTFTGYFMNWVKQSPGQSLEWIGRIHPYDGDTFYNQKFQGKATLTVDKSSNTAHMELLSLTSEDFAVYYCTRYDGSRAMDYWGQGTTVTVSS VL: DIVLTQSPLSLAVSLGQPAIISCKASQSVSFAGTSLMHWYHQKPGQQPRLLIYRASNLEAGVPDRFSGSGSKTDFTLTISPVEAEDAATYYCQQSREYPYTFGGGTKLEIKR", "> 50 nM"],
  ["conjugate 17g (antibody, human IgG1, kappa, V domains shown, thio-peptide-maytansinoid 14g linked through sulfo-GMBS to antibody amines (Example 4)) VH: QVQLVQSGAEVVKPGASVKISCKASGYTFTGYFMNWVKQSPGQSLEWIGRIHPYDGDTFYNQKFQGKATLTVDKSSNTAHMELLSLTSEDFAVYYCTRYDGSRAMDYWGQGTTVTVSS VL: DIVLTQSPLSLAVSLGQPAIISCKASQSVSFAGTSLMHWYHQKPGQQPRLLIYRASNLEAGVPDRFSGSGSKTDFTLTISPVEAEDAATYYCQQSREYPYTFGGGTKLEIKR", "> 50 nM"]
]}

# ---- query binder ----
Exercise: Identify measured IC50, in vitro cytotoxicity (WST-8, 5 days), KB cells, +Block corresponding to M9346A-sGMBS-LDL-DM (conjugate 17c) (antibody, human IgG1, kappa, V domains shown, maytansinoid LDL-DM (compound 14c, L-Ala-D-Ala-L-Ala) linked through sulfo-GMBS to antibody amines, 3.7 mol LDL-DM/mol antibody) VH: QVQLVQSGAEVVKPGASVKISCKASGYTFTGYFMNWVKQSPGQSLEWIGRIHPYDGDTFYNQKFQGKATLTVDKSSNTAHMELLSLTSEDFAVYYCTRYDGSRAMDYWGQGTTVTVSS VL: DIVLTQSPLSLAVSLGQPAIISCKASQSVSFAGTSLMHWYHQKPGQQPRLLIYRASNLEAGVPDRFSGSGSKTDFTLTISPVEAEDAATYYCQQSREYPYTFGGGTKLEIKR
Solution: > 50 nM
